Kindly state IC50 for each of the entries shown.
target system: recombinant human Mcl-1 (residues 171-327) / Bim interaction (Homo sapiens (Human), UniProt Q07820)
Sequence (Q07820 171-327): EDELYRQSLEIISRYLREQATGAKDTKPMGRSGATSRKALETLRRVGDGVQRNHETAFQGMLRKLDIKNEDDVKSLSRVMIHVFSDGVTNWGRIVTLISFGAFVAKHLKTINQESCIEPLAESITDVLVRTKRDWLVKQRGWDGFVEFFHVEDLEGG
measurement protocol: biochemical
Assay type: binding
test context: TR-FRET, Mcl-1(171-327) / biotin-Bim (51-76); read-out: Mcl-1 HTRF IC50
Response body: numeric value in nM, unit text excluded.

Q: Requested field: IC50. Item: C[C@@H]1[C@@H](C)CCC[C@@]2(OCCO[C@H]2C=O)[C@@H]2CC[C@H]2CN2C[C@@]3(CCCc4cc(Cl)ccc43)COc3ccc(cc32)C(=O)NS1(=O)=O (single isomer, unassigned) [Example 100495]
Result: 0.462

Q: Same for C[C@@H]1[C@@H](C)CCC[C@@]2(C[C@H]2C(=O)N2CCN3CCOC[C@H]3C2)[C@@H]2CC[C@H]2CN2C[C@@]3(CCCc4cc(Cl)ccc43)COc3ccc(cc32)C(=O)NS1(=O)=O [Example 100303]
Result: 3.64

Q: Same for C[C@@H]1[C@@H](C)CCC[C@@](O)(CCN2CCCCC2)[C@@H]2CC[C@H]2CN2C[C@@]3(CCCc4cc(Cl)ccc43)COc3ccc(cc32)C(=O)NS1(=O)=O [Example 100091]
Result: 1.2

Q: Same for C[C@@H]1[C@@H](C)C/C=C/[C@@](CC(=O)N(C)C)(OCCN2CCOCC2)[C@@H]2CC[C@H]2CN2C[C@@]3(CCCc4cc(Cl)ccc43)COc3ccc(cc32)C(=O)NS1(=O)=O (single isomer, unassigned) [Example 100310]
Result: 0.152

Q: Same for CC(=O)N[C@@]1(CN2CCOCC2)CCC[C@H](C)[C@@H](C)S(=O)(=O)NC(=O)c2ccc3c(c2)N(C[C@@H]2CC[C@H]21)C[C@@]1(CCCc2cc(Cl)ccc21)CO3 [Example 100272]
Result: 0.401

Q: Same for C=C(F)C[C@@]1(O)/C=C/C[C@H](C)[C@@H](C)S(=O)(=O)NC(=O)c2ccc3c(c2)N(C[C@@H]2CC[C@H]21)C[C@@]1(CCCc2cc(Cl)ccc21)CO3 [Example 100564]
Result: 0.333

Q: Same for CO[C@@]1(C#CCO)/C=C/C[C@H](C)[C@@H](C)S(=O)(=O)NC(=O)c2ccc3c(c2)N(C[C@@H]2CC[C@H]21)C[C@@]1(CCCc2cc(Cl)ccc21)CO3 [Example 100345]
Result: 2.42

Q: Same for C=C(F)C[C@@]1(OC)/C=C/C[C@H](C)[C@@H](C)S(=O)(=O)NC(=O)c2ccc3c(c2)N(C[C@@H]2CC[C@H]21)C[C@@]1(CCCc2cc(Cl)ccc21)CO3 [Example 100568]
Result: 0.431

Q: Same for C[C@@H]1[C@@H](C)C/C=C/[C@@](O)(c2ccc(F)nc2)[C@@H]2CC[C@H]2CN2C[C@@]3(CCCc4cc(Cl)ccc43)COc3ccc(cc32)C(=O)NS1(=O)=O (single isomer, unassigned) [Example 100530]
Result: 0.171

---

Kindly state log10 of IC50 for each of the entries shown.
target system: recombinant human Mcl-1 (residues 171-327) / Bim interaction (Homo sapiens (Human), UniProt Q07820)
measurement protocol: biochemical
Type: binding
test context: TR-FRET, Mcl-1(171-327) / biotin-Bim (51-76); read-out: Mcl-1 HTRF IC50
Hi team, quick reminder: these entries are log10 of IC50 (nM).

Q: Requested field: log10 of IC50. Item: C[C@@H]1[C@@H](C)CCC[C@@](O)(Cc2ccncn2)[C@@H]2CC[C@H]2CN2C[C@@]3(CCCc4cc(Cl)ccc43)COc3ccc(cc32)C(=O)NS1(=O)=O [Example 100113]
Result: -0.74

Q: Same for CO[C@@]1(CC(=O)N(C)C2CCCC2)/C=C/C[C@H](C)[C@@H](C)S(=O)(=O)NC(=O)c2ccc3c(c2)N(C[C@@H]2CC[C@H]21)C[C@@]1(CCCc2cc(Cl)ccc21)CO3 [Example 100405]
Result: -0.26

Q: Same for C[C@@H]1[C@@H](C)C/C=C/[C@](O)(c2cccnn2)[C@@H]2CC[C@H]2CN2C[C@@]3(CCCc4cc(Cl)ccc43)COc3ccc(cc32)C(=O)NS1(=O)=O [Example 100349]
Result: 0.06

Q: Same for CO[C@@]1(C[C@@H](O)C(C)C)/C=C/C[C@H](C)[C@@H](C)S(=O)(=O)NC(=O)c2ccc3c(c2)N(C[C@@H]2CC[C@H]21)C[C@@]1(CCCc2cc(Cl)ccc21)CO3 (single isomer, unassigned) [Example 100366]
Result: -0.70

Q: Same for CO[C@@]1(CC(=O)N(C)C(C)(C)C)/C=C/C[C@H](C)[C@@H](C)S(=O)(=O)NC(=O)c2ccc3c(c2)N(C[C@@H]2CC[C@H]21)C[C@@]1(CCCc2cc(Cl)ccc21)CO3 [Example 100008]
Result: -0.77

Q: Same for CCOC[C@@]1(O)CCC[C@H](C)[C@@H](C)S(=O)(=O)NC(=O)c2ccc3c(c2)N(C[C@@H]2CC[C@H]21)C[C@@]1(CCCc2cc(Cl)ccc21)CO3 [Example 100190]
Result: 0.68

Q: Same for C[C@@H]1[C@@H](C)C/C=C/[C@](O)(CCO)[C@@H]2CC[C@H]2CN2C[C@@]3(CCCc4cc(Cl)ccc43)COc3ccc(cc32)C(=O)NS1(=O)=O [Example 100175]
Result: -0.83

Q: Same for Cc1nc([C@]2(O)/C=C/C[C@H](C)[C@@H](C)S(=O)(=O)NC(=O)c3ccc4c(c3)N(C[C@@H]3CC[C@H]32)C[C@@]2(CCCc3cc(Cl)ccc32)CO4)cs1 [Example 100516]
Result: 0.53

Q: Same for COCCN(C)S(=O)(=O)C[C@]1(O)CCC[C@H](C)[C@@H](C)S(=O)(=O)NC(=O)c2ccc3c(c2)N(C[C@@H]2CC[C@H]21)C[C@@]1(CCCc2cc(Cl)ccc21)CO3 [Example 100165]
Result: -0.34

Q: Same for C[C@@H]1CC[C@@H]2CC2[C@](C)(O)[C@@H]2CC[C@H]2CN2C[C@@]3(CCCc4cc(Cl)ccc43)COc3ccc(cc32)C(=O)NS1(=O)=O (stereo in doubt) [Example 100033]
Result: 0.45
